# kon per entry
Biological target: T1, human IL-23 (human, UniProt Q9NPF7 20-189; P29460 23-328)
T1 construct: Heterodimer of p19 and p40; also called hIL-23
T1 sequence 1: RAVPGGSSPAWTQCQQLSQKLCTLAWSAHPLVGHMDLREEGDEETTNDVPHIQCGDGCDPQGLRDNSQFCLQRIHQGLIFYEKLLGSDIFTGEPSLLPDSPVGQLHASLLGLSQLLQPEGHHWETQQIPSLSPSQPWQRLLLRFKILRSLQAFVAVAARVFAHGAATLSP
T1 sequence 2: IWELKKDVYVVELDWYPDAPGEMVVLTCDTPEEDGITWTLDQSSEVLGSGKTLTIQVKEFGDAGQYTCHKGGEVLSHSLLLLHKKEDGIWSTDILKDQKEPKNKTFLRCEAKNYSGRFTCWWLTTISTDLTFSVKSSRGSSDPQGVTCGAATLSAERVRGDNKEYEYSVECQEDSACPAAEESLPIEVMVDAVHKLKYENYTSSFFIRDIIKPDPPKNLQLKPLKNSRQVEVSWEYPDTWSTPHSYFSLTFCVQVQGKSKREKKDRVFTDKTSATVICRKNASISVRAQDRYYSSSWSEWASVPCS
Assay: SPR Biacore, purified mAb captured on anti-human IgG, human IL-23 64-0.062 nM

BINDER	kon
A24AM4 (antibody, human IgG1, kappa, V domains shown) VH: QVQLVQSGAEVKKPGSSVKVSCKASGYTFTSYGITWVRQAPGQGLEWMGENYPRSGNIYYNEKFKGRVTITADKSTSTAYMELSSLRSEDTAVYYCARAEFISTVVAPYYYALDYWGQGTLVTVSS VL: DIVMTQSPDSLAVSLGERATINCKASKKVTIFGSTSALHWYQQKPGQPPKLIYNGAKPESGVPDRFSGSGSGTDFTLTISSLQAEDVAVYYCLQNKEVPYTFGGGTKVEIKR	2.02e+06 M⁻¹ s⁻¹
A5M20 (antibody, human IgG1, kappa, V domains shown) VH: QVQLVQSGAEVKKPGSSVKVSCKASGYTFTSYGITWVRQAPGQGLEWMGENYPRSGNTYYNEKFKGRVTITADKSTSTAYMELSSLRSEDTAVYYCARAEFISTVVAPYYYALDYWGQGTLVTVSS VL: DIVMTQSPDSLAVSLGERATINCKASKKVTIFGSISALHWYQQKPGQPPKLIYNLAKLESGVPDRFSGSGSGTDFTLTISSLQAEDVAVYYCLQNKEVPYTFGGGTKVEIKR	2.29e+06 M⁻¹ s⁻¹
A5M21 (antibody, human IgG1, kappa, V domains shown) VH: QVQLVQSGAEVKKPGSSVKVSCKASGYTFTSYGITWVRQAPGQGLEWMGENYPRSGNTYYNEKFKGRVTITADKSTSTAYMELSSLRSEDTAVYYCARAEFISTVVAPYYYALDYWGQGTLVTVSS VL: DIVMTQSPDSLAVSLGERATINCKASKKVTIYGSTSALHWYQQKPGQPPKLIYNLAKPESGVPDRFSGSGSGTDFTLTISSLQAEDVAVYYCLQNKEVPYTFGGGTKVEIKR	1.74e+06 M⁻¹ s⁻¹
A3M0 (antibody, human IgG1, kappa, V domains shown, human gamma1 and kappa constant regions; Tested as HEK supernatant and as purified antibody; also called A3M0 purified) VH: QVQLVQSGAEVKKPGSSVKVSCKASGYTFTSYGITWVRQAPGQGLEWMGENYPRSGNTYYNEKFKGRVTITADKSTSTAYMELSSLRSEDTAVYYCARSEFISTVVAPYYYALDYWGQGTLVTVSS VL: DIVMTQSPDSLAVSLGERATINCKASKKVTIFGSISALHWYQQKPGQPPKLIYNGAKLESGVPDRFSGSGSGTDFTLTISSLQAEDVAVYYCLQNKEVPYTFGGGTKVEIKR	1.16e+06 M⁻¹ s⁻¹
A5M12 (antibody, human IgG1, V domains shown) VH: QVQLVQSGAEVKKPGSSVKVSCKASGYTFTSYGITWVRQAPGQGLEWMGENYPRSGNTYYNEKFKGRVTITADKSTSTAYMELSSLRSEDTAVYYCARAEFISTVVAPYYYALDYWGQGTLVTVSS VL: DIVMTQSPDSLAVSLGERATINCKASKKVTIYGSTSALHWYQQKPGQPPKLIYNGAKPESGVPDRFSGSGSGTDFTLTISSLQAEDVAVYYCLQNKEVPYTFGGGTKVEIK	1.66e+06 M⁻¹ s⁻¹
A5M0 (antibody, human IgG1, kappa, V domains shown) VH: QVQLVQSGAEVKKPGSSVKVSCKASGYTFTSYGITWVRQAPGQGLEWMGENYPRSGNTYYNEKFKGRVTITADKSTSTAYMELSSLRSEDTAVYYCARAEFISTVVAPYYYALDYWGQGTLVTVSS VL: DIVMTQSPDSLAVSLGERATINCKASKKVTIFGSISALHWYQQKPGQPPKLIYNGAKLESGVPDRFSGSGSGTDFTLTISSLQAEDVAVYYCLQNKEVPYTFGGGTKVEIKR	1.54e+06 M⁻¹ s⁻¹
